- EXPERIMENTAL TARGET: HIV-1 JR-CSF Env I309A (HIV-1 JR-CSF) (UniProt P20871)
- MEASUREMENT DESCRIPTION: cell-based or functional assay
EXPERIMENTAL ENDPOINT: Fold IC50 increase relative to wild-type (fold)
A number alone suffices; assume fold.

PGT-125 (antibody, V domains shown) VH: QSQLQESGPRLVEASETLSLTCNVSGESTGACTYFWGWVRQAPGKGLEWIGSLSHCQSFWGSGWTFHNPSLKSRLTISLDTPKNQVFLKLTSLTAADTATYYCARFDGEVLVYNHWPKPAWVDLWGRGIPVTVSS VL: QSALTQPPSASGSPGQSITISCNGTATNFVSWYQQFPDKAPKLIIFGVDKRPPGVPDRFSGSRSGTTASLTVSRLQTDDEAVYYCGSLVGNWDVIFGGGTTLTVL: 1
PGT-131 (antibody, V domains shown) VH: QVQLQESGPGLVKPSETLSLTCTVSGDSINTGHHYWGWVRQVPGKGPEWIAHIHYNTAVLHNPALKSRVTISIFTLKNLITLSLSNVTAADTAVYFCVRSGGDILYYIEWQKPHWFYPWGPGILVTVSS VL: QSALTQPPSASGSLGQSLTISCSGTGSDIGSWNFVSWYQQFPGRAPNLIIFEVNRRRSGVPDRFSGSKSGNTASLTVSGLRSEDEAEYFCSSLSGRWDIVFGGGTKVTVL: 8.8

Then there is this binder:
# get_value(readout='Fold IC50 increase relative to wild-type', item= PGT-123 (antibody, V domains shown) VH: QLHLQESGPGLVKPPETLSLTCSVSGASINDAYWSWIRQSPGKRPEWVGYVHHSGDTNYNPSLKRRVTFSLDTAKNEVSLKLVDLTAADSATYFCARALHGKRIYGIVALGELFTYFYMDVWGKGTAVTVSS VL: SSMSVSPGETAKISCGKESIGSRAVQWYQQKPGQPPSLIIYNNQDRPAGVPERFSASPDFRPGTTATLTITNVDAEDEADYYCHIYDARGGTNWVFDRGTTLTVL ) 1.6
